# Assay Method Text: The drug is tested on WLS-069 corresponding to human gut metagenome with ENA study accession number: PRJEB37062 and ENA sample accession number: ERS12561748 for biotransformation under anaerobic condition. The drug concentrations were measured over 9 timepoints collected between 0 and 24 hours of incubation by liquid-chromatography-coupled mass spectrometry (LC–MS); further: call rule not given here
# Experimental Conditions: 2 µM
Readout Type: Bacterial Biotransformation

// worked examples, Bacterial Biotransformation included
{"Compound": "O=C(CCCN1CCC2(CC1)C(=O)NCN2c1ccccc1)c1ccc(F)cc1", "Readout Type": "Bacterial Biotransformation", "Observed": "Compound metabolized"}
{"Compound": "CCN(CC)CCNC(=O)c1cc(S(C)(=O)=O)ccc1OC [TIAPRIDE]", "Readout Type": "Bacterial Biotransformation", "Observed": "Compound NOT metabolized"}
{"Compound": "CCN(CC)C(=O)C1(c2ccccc2)CC1CN (configuration not stated)", "Readout Type": "Bacterial Biotransformation", "Observed": "Compound NOT metabolized"}
{"Compound": "COc1ccc(CN2CCNCC2)c(OC)c1OC.Cl.Cl [TRIMETAZIDINE DIHYDROCHLORIDE]", "Readout Type": "Bacterial Biotransformation", "Observed": "Compound NOT metabolized"}
{"Compound": "C[C@]12C=CC(=O)C=C1CC[C@@H]1[C@@H]2C(=O)C[C@@]2(C)[C@H]1CC[C@]2(O)C(=O)CO", "Readout Type": "Bacterial Biotransformation", "Observed": "Compound metabolized"}
{"Compound": "CC(CCc1ccccc1)NCC(O)c1ccc(O)c(C(N)=O)c1 (configuration not stated)", "Readout Type": "Bacterial Biotransformation", "Observed": "Compound NOT metabolized"}
{"Compound": "C[C@@H](c1ncncc1F)[C@](O)(Cn1cncn1)c1ccc(F)cc1F", "Readout Type": "Bacterial Biotransformation", "Observed": "Compound metabolized"}
{"Compound": "CC(=O)Nc1ccc(OC(C)=O)cc1 [DIACETAMATE]", "Readout Type": "Bacterial Biotransformation", "Observed": "Compound metabolized"}
{"Compound": "C[C@]12CCC(=O)C=C1[C@@H]1C[C@@H]1[C@H]1[C@@H]3[C@@H]4C[C@@H]4[C@@]4(CCC(=O)O4)[C@@]3(C)CC[C@@H]12", "Readout Type": "Bacterial Biotransformation", "Observed": "Compound metabolized"}
{"Compound": "CC(=O)O[C@]1(C(C)=O)CC[C@H]2[C@@H]3C=C(C)C4=CC(=O)CC[C@]4(C)[C@H]3CC[C@@]21C [MEGESTROL ACETATE]", "Readout Type": "Bacterial Biotransformation", "Observed": "Compound metabolized"}

Name the reported Bacterial Biotransformation value associated with the compound CCN1CCCC1CNC(=O)c1cc(S(=O)(=O)CC)c(N)cc1OC (configuration not stated) [AMISULPRIDE]
Compound NOT metabolized

What Bacterial Biotransformation value was documented for this compound, CC(=O)Oc1ccc(C(c2ccc(OC(C)=O)cc2)c2ccccn2)cc1 ?
Compound metabolized

Which Bacterial Biotransformation reading was recorded for the compound CC(C)c1c(CN(C)C(C)Cc2ccccc2)n(C)n(-c2ccccc2)c1=O (configuration not stated) ?
Compound metabolized

Look up Bacterial Biotransformation for this compound: C[N+]12CCC(CC1)C(OC(=O)C(O)(c1ccccc1)c1ccccc1)C2.[Br-] (configuration not stated) [CLIDINIUM BROMIDE]
Compound NOT metabolized

Need Bacterial Biotransformation, item O=C1C(CC[S+]([O-])c2ccccc2)C(=O)N(c2ccccc2)N1c1ccccc1 (configuration not stated)
Compound metabolized

Returns the measured Bacterial Biotransformation for the input compound. Input: CN(C)C(=O)Oc1cccc([N+](C)(C)C)c1.[Br-] [NEOSTIGMINE BROMIDE]
Compound NOT metabolized

Could you tell me which Bacterial Biotransformation is on file for C#C[C@]1(OC(C)=O)CC[C@H]2[C@@H]3CCC4=C/C(=N/O)CC[C@@H]4[C@H]3CC[C@@]21CC [NORGESTIMATE] ?
Compound metabolized
